Data origin: patent US20250059174A1

target: Recombinant human c-KIT kinase (Homo sapiens (Human), UniProt P10721); assay: c-KIT kinase chemiluminescence assay (ADP-Glo); details: ATP 50 μM
Sequence (P10721 26-976): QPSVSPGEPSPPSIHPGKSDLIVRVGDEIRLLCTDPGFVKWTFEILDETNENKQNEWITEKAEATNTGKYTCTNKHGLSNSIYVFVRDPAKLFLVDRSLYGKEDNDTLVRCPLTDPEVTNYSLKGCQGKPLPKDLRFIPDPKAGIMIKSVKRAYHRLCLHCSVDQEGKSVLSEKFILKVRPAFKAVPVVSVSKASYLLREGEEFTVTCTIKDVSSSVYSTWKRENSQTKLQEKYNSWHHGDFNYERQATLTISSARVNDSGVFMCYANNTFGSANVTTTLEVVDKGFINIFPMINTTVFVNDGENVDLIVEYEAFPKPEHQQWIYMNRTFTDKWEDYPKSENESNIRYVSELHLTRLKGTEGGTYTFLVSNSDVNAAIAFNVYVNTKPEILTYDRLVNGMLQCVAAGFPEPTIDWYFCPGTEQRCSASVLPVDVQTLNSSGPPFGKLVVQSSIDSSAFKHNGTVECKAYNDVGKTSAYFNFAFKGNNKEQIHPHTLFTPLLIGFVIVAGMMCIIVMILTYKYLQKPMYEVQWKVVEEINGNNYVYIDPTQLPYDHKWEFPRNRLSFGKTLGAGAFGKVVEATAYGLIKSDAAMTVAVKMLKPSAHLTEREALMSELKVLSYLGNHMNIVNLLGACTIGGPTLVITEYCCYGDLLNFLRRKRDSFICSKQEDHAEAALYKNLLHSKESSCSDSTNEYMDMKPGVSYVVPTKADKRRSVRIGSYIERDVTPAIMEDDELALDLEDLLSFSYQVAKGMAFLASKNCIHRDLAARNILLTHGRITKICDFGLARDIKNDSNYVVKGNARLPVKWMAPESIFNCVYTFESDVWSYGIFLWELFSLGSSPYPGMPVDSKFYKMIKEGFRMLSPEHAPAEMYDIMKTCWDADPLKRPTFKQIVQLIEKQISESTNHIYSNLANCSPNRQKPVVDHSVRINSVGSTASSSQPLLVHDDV
pIC50: −log10 of the molar value.
metric.name: pIC50

Recorded results for 8 molecules are shown here.
Cc1ccc(-c2noc([C@H]3C[C@@H]3F)n2)cc1NC(=O)c1cnn(-c2cccc(Cl)c2)c1	< 6.00
O=C(Nc1cc(-c2noc([C@H]3C[C@@H]3F)n2)ccc1C1CC1)c1cnn2ccc(N3CC4(COC4)C3)cc12	< 6.00
Cc1ccc(-c2noc([C@H]3C[C@@H]3F)n2)cc1NC(=O)c1cnn2ccc(-c3cn(C45CC(C(F)(F)F)(C4)C5)nn3)cc12	> 7.00
Cc1ccc(-c2noc([C@H]3C[C@@H]3F)n2)cc1NC(=O)c1cnn2ccc(N3CC4CC3C4(C)C)cc12 (some centres unmarked)	> 7.00
Cc1ccc(-c2noc([C@H]3C[C@@H]3F)n2)cc1NC(=O)c1csc2cncnc12	< 6.00
Cc1ccc(-c2noc([C@H]3C[C@@H]3F)n2)cc1NC(=O)c1cnc(-c2cccc(NC(=O)OC(C)(C)C)n2)o1	< 6.00
Cc1ccc(-c2noc([C@H]3C[C@@H]3F)n2)cc1NC(=O)c1cnc(-c2ccc3c(c2)oc(=O)n3C)o1	6.00 to 7.00
COc1cccc(-c2ncc(C(=O)Nc3cc(-c4noc([C@H]5C[C@@H]5F)n4)ccc3C)o2)c1	6.00 to 7.00

// input: 6 molecules below; output: pIC50 for each
1. CC(=O)N1CCC(c2nc(-c3cnc(C)c(NC(=O)c4cnn5ccc(N6CC7(COC7)C6)cc45)c3)no2)C1 (centres unmarked)
2. Cc1ccc(-c2noc([C@H]3C[C@@H]3F)n2)cc1NC(=O)c1cnn2ccc(-c3ccc(N)nc3C)cc12
3. Cc1ccc(-c2noc([C@H]3C[C@@H]3F)n2)cc1NC(=O)c1cnn2cc(F)c(-c3c(C)nn(CC(C)(C)O)c3C)cc12
4. Cc1ccc(-c2noc([C@H]3C[C@@H]3F)n2)cc1NC(=O)c1cnn2ccc(N3CCN(CC(F)(F)F)[C@H](C)C3)cc12
5. Cc1ncc(-c2ccc3c(C(=O)Nc4cc(-c5noc([C@H]6C[C@@H]6F)n5)ccc4C)cnn3c2)c(C)n1
6. Cc1ccc(-c2noc([C@H]3C[C@@H]3F)n2)cc1NC(=O)c1cnc(-c2cnc3[nH]ccc3c2)o1

**A:**
["< 6.00", "> 7.00", "6.00 to 7.00", "> 7.00", "6.00 to 7.00", "> 7.00"]

---

tested on: M-07e cells; assay: M-07e cellular assay (SCF-mediated cell proliferation); type: cell-based; settings: Homo sapiens, 72 hours, CellTiter Glo
metric.name: EC50

Cc1ccc(-c2noc([C@H]3C[C@@H]3F)n2)cc1NC(=O)c1cnc(-c2cccc3cc[nH]c23)o1	> 1000 nM

Count: 5. Required value per item: EC50.
1. Cc1nc2cc(-c3ncc(C(=O)Nc4cc(-c5noc([C@H]6C[C@@H]6F)n5)ccc4C)o3)ccc2[nH]1
2. Cc1ccc(-c2noc([C@H]3C[C@@H]3F)n2)cc1NC(=O)c1cnc2n1C(Cc1ccccc1)c1ccccc1-2 (stereo partly drawn)
3. COC(=O)N1CC(Cc2nc(-c3ccc(C)c(NC(=O)c4cnn5ccc(N6CC7(COC7)C6)cc45)c3)no2)C1
4. Cc1ccc(-c2noc(C3CN(C(=O)[C@H]4C[C@@H]4F)C3)n2)cc1NC(=O)c1cnn2ccc(N3CC4(COC4)C3)cc12
5. Cc1ccc(-c2noc([C@@H]3C[C@@H]4[C@H](C3)C4(F)F)n2)cc1NC(=O)c1cnn2ccc(N3CC4(COC4)C3)cc12

**A:**
["< 100 nM", "> 1000 nM", "100 to 1000 nM", "100 to 1000 nM", "< 100 nM"]
